# Tested on: A549 cells
# experiment description: Test for inhibition of OCR and enhancement of ECAR (XF Analyzer)
# Assay type: cell-based
# condition details: Homo sapiens, 24 hrs treatment, oxygen consumption rate
pIC50: −log10 of the molar value. Counter-ions that a name gives are not always drawn.
measured attribute: pIC50

Field: example entries. Status: answers known.
What measured pIC50 is associated with N=C(NC(=N)N1CCC(F)(F)CC1)Nc1ccc(Oc2ccccc2)cc1 [Example 23, acetate] on A549 cells?
5.40 to 5.70

Continue with N=C(NC(=N)N1CCC(F)(F)CC1)Nc1ccc(I)c(Br)c1 [Example 22, acetate]
5.40 to 5.70

Continue with N=C(NC(=N)N1CCC(F)(F)CC1)Nc1cccc(Br)c1 [Example 5, hydrochloride]
< 5.40

Continue with CC(C)c1ccc(NC(=N)NC(=N)N2CCC(F)(F)CC2)cc1 [Example 10, hydrochloride]
< 5.40

Continue with N=C(NC(=N)N1CCC(F)(F)CC1)Nc1ccc(C(F)(F)F)cc1 [Example 21, acetate]
5.40 to 5.70

More entries:
What measured pIC50 is associated with N=C(NC(=N)N1CCC(F)(F)CC1)Nc1ccc(Cl)c(Cl)c1 [Example 3, hydrochloride] on A549 cells?
< 5.40

Continue with N=C(NC(=N)N1CCSC1)Nc1ccc(SC(F)(F)F)cc1 [Example 14, hydrochloride]
5.40 to 5.70

Continue with N=C(NCc1ccc(Br)cc1)NC(=N)N1CCC(F)(F)CC1 [Example 55, acetate]
< 5.40
